# Test system: NCI-H2023
# Assay Explanation: relative viability (nuclei count vs DMSO), 5 days (fraction); higher = more cells survive
# Condition Notes: first compound 0.01 µM
Measured Endpoint: relative viability
Simply state the number, no unit and no words.

CCN(CC)CCCCNc1ncc2cc(-c3cc(OC)cc(OC)c3)c(NC(=O)NC(C)(C)C)nc2n1 + O=C(CCCCCCC(=O)Nc1ccccc1)NO [Vorinostat] (partner 1 µM)    0.534

Which value of relative viability has been reported for O=c1cc(N2CCOCC2)oc2c(-c3cccc4c3sc3ccccc34)cccc12 + CC1(C)CCC(c2ccc(Cl)cc2)=C(CN2CCN(c3ccc(C(=O)NS(=O)(=O)c4ccc(N[C@H](CCN5CCOCC5)CSc5ccccc5)c(S(=O)(=O)C(F)(F)F)c4)cc3)CC2)C1 [Navitoclax] (partner 0.5 µM) in the records?
1.07

Which value of relative viability has been reported for O=c1cc(N2CCOCC2)oc2c(-c3cccc4c3sc3ccccc34)cccc12 + COc1cccc2cc(-c3nc([C@H]4CC[C@H](C(=O)O)CC4)n4ncnc(N)c34)[nH]c12 [OSI-027] (partner 0.5 µM) in the records?
0.456

Which value of relative viability has been reported for O=c1cc(N2CCOCC2)oc2c(-c3cccc4c3sc3ccccc34)cccc12 + Nc1nc2[nH]cc(CCc3ccc(C(=O)N[C@@H](CCC(=O)O)C(=O)O)cc3)c2c(=O)[nH]1 [Pemetrexed] (partner 0.2 µM) in the records?
0.284
